Molecular target: Galectin-9C (Homo sapiens, UniProt O00182)
Construct: N and C respectively represent N-terminal side carbohydrate-recognition domain and C-terminal side carbohydrate-recognition domain; made in house
Sequence (O00182 227-355 limits assumed): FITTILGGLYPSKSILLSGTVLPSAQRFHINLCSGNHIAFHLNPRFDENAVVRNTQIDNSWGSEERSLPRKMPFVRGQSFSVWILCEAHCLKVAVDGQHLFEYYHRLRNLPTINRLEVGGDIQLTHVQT
Test: FAC affinity test on galectin-immobilized column
Assay type: binding
Details: pyridyl-aminated carbohydrate; galectin-9C immobilized 3.0 mg/ml; less than 5 μl = below interaction detection limit
Reported V − V0 Value values are given for each entry in this list.

compound	V − V0 Value
CC(=O)N[C@H]1[C@H](O[C@H]2[C@H](O)[C@@H](O)[C@H](O[C@H]3[C@@H](O)[C@@H](CO)O[C@@H](O[C@H]4[C@H](O)[C@@H](O)[C@H](O[C@H]5[C@@H](O)[C@@H](CO)O[C@@H](O[C@H]6[C@H](O)[C@@H](O)[C@H](O[C@H]7[C@@H](O)[C@@H](CO)OC(O)[C@@H]7NC(C)=O)O[C@@H]6C(=O)O)[C@@H]5NC(C)=O)O[C@@H]4C(=O)O)[C@@H]3NC(C)=O)O[C@@H]2C(=O)O)O[C@H](CO)[C@H](O)[C@@H]1O[C@@H]1O[C@H](C(=O)O)[C@@H](O)[C@H](O)[C@H]1O (stereo partly drawn)	<5.0 µL
CC(=O)NC1C(O)OC(COS(=O)(=O)[O-])C(OC2OC(COS(=O)(=O)[O-])C(O)C(OC3OC(COS(=O)(=O)[O-])C(OC4OC(COS(=O)(=O)[O-])C(O)C(O)C4O)C(O)C3NC(C)=O)C2O)C1O.[Na+].[Na+].[Na+].[Na+] (stereo not drawn)	<5.0 µL
CC(=O)N[C@H]1[C@H](O[C@H]2[C@@H](O)[C@@H](CO)OC(O)[C@@H]2O)O[C@H](CO)[C@@H](O[C@@H]2O[C@H](CO)[C@H](O)[C@H](O)[C@H]2O)[C@@H]1O (stereo partly drawn)	6.7 ± 0.2 µL

---

Biological target: Galectin-1 (Homo sapiens, UniProt P09382)
Construct: made in house
Sequence (P09382 whole entry): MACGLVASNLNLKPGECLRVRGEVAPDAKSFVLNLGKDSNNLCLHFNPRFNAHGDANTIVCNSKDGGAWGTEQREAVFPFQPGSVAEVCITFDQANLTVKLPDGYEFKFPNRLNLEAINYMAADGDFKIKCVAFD
Experiment: FAC affinity test on galectin-immobilized column
Type: binding
Details: pyridyl-aminated carbohydrate; galectin-1 immobilized 0.8 mg/ml; less than 5 μl = below interaction detection limit
recorded.endpoint: V − V0 Value

molecule	result
CC(=O)N[C@H]1[C@H](O[C@H]2[C@H](O)[C@@H](O)[C@H](O[C@H]3[C@@H](O)[C@@H](CO)O[C@@H](O[C@H]4[C@H](O)[C@@H](O)[C@H](O[C@H]5[C@@H](O)[C@@H](CO)O[C@@H](O[C@H]6[C@H](O)[C@@H](O)[C@H](O[C@H]7[C@@H](O)[C@@H](CO)OC(O)[C@@H]7NC(C)=O)O[C@@H]6C(=O)O)[C@@H]5NC(C)=O)O[C@@H]4C(=O)O)[C@@H]3NC(C)=O)O[C@@H]2C(=O)O)O[C@H](CO)[C@H](O)[C@@H]1O[C@@H]1O[C@H](C(=O)O)[C@@H](O)[C@H](O)[C@H]1O (some centres unmarked)	<5.0 µL
CC(=O)N[C@H]1[C@H](O[C@H]2[C@@H](O)[C@@H](COS(=O)(=O)O)O[C@@H](O[C@H]3[C@H](O)[C@@H](NC(C)=O)C(O)O[C@@H]3COS(=O)(=O)O)[C@@H]2O)O[C@H](COS(=O)(=O)O)[C@@H](O[C@@H]2O[C@H](CO)[C@H](O)[C@H](O)[C@H]2O)[C@@H]1O (some centres unmarked)	5.8 ± 0.2 µL
